Target: UniProtKB Q9HAW7
Assay: SAHA glucuronidation, wild-type UGT1A7
Assay type: in vitro ADME
Details: human, pH 7.5
result.type: Km at 1 h (mM)
State just the number; it will be interpreted in mM.

Input O=C(CCCCCCC(=O)Nc1ccccc1)NO [SAHA, Suberoylanilide hydroxamic acid] . Output Km at 1 h: 2.7

---

Experiment: in vitro
Settings: human, human liver microsomes from UGT2B17 (*1/*1) subjects, pH 7.5
result.type: Km (µM)
Give the value in µM but do not write µM after it.

Entry O=C(CCCCCCC(=O)Nc1ccccc1)NO [SAHA, Suberoylanilide hydroxamic acid] — recorded Km = 1200

---

Target: UGT1A6 (Homo sapiens)
Sequence (P19224 27-532): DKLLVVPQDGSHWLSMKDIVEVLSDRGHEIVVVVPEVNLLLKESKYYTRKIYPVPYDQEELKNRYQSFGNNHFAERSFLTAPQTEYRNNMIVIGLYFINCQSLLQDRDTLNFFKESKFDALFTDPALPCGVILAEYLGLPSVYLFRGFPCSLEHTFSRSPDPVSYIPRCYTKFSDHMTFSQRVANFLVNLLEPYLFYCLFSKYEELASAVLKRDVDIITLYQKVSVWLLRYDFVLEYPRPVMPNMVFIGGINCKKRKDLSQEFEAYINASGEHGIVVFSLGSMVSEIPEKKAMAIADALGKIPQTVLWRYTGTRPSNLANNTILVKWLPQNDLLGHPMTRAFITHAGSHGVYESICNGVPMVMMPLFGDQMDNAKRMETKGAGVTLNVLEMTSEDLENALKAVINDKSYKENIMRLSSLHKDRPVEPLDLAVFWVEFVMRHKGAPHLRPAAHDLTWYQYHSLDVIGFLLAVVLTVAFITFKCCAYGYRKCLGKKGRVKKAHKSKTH
Experiment: SAHA glucuronidation screen, UGT1A6-overexpressing cell homogenate
Type: in vitro ADME
Settings: human, UGT1A6-overexpressing cell homogenate, pH 7.5
result.type: Km at 1 h

Kindly note: UGT1A6 (Homo sapiens), O=C(CCCCCCC(=O)Nc1ccccc1)NO [SAHA, Suberoylanilide hydroxamic acid] , Km at 1 h value reported: > 8 mM

---

Target: UGT1A3 (Homo sapiens)
Sequence (P35503 29-534): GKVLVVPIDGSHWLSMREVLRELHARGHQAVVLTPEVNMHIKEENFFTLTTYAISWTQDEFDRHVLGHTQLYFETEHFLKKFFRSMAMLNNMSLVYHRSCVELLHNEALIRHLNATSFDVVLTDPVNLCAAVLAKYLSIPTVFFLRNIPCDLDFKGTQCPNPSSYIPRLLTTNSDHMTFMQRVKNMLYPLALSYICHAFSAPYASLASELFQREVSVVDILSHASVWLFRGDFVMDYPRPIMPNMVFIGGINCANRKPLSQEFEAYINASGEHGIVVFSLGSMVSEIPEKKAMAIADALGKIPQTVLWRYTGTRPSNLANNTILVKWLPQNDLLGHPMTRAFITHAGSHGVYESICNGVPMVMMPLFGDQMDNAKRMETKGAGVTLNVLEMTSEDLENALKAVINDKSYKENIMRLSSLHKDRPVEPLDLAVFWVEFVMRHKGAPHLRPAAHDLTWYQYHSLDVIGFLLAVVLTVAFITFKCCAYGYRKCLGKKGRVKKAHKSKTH
Assay: SAHA glucuronidation, UGT1A3-overexpressing HEK293 cell homogenate
Format: in vitro ADME
Conditions: human, UGT1A3-overexpressing HEK293 cell homogenate, pH 7.5
result.type: Km at 1 h (mM)
Supply the numeric figure in mM, leaving out any unit text.

The value of Km at 1 h measured for the compound O=C(CCCCCCC(=O)Nc1ccccc1)NO [SAHA, Suberoylanilide hydroxamic acid] turned out to be 3.4

---

Target: UGT2B7 (Homo sapiens)
Sequence (P16662 24-529): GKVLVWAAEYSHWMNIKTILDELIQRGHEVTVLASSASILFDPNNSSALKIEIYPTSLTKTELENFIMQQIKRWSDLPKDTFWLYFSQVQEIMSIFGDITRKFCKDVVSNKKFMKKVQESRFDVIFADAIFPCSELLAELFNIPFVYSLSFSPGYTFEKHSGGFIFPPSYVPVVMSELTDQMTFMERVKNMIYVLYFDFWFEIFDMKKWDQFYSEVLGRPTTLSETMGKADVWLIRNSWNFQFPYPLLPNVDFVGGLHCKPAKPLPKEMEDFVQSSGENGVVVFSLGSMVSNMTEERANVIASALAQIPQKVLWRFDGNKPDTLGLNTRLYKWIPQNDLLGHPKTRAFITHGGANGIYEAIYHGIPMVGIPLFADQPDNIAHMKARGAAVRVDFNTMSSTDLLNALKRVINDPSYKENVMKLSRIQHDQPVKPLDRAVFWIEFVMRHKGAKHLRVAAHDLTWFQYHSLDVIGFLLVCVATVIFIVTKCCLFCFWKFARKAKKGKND
Assay: SAHA glucuronidation screen, UGT2B7-overexpressing cell homogenate
Assay type: in vitro ADME
Conditions: human, UGT2B7-overexpressing cell homogenate, pH 7.5
result.type: Km at 1 h

// sample O=C(CCCCCCC(=O)Nc1ccccc1)NO [SAHA, Suberoylanilide hydroxamic acid] , its Km at 1 h was > 8 mM

---

Target: UGT1A7*4 (UGT1A7p.Trp208Arg) (Homo sapiens, UniProt Q9HAW7, W208R)
Sequence (Q9HAW7 26-530 W208R): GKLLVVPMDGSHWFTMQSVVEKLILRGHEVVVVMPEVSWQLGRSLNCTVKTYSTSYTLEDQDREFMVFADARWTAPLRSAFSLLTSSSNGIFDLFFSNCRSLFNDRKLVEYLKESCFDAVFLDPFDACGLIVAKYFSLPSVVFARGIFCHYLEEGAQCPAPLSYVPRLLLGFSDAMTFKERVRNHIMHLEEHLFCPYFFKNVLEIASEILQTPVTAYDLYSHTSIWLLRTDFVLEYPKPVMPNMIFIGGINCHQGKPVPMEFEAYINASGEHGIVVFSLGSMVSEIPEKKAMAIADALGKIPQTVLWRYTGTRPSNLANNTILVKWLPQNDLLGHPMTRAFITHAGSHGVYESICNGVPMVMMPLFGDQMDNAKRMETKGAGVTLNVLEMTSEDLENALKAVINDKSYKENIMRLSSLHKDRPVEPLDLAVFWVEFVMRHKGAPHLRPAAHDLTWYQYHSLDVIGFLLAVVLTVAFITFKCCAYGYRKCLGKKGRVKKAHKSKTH
Assay: SAHA glucuronidation, UGT1A7*4 variant cell homogenate
Type: in vitro ADME
Conditions: human, pH 7.5
result.type: Km at 1 h
Field note: include the unit after the figure.

Memo: O=C(CCCCCCC(=O)Nc1ccccc1)NO [SAHA, Suberoylanilide hydroxamic acid] , reported Km at 1 h: 2200 µM

---

Molecular target: UGT1A10 (Homo sapiens)
Sequence (Q9HAW8 26-530): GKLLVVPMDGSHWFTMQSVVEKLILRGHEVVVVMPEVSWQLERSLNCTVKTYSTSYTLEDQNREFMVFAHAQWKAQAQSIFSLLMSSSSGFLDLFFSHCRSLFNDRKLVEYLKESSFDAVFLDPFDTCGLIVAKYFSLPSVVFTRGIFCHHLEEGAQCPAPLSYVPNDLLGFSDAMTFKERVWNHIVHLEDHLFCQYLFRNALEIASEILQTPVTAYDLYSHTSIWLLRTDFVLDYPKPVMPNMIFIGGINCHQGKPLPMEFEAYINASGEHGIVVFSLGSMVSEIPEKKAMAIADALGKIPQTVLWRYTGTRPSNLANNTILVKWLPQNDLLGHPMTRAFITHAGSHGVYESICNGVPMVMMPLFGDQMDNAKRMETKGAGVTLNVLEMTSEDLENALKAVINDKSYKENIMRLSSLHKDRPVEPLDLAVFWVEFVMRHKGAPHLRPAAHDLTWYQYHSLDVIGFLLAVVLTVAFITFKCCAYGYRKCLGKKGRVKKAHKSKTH
Experiment: SAHA glucuronidation, wild-type UGT1A10
Format: in vitro ADME
Conditions: human, pH 7.5
result.type: Km at 1 h (µM)
Quick note: give the figure in µM, leave out the unit.

Input O=C(CCCCCCC(=O)Nc1ccccc1)NO [SAHA, Suberoylanilide hydroxamic acid] . Output Km at 1 h: 1000

---

Molecular target: UGT1A4 (Homo sapiens, UniProt P22310)
Sequence (P22310 29-534): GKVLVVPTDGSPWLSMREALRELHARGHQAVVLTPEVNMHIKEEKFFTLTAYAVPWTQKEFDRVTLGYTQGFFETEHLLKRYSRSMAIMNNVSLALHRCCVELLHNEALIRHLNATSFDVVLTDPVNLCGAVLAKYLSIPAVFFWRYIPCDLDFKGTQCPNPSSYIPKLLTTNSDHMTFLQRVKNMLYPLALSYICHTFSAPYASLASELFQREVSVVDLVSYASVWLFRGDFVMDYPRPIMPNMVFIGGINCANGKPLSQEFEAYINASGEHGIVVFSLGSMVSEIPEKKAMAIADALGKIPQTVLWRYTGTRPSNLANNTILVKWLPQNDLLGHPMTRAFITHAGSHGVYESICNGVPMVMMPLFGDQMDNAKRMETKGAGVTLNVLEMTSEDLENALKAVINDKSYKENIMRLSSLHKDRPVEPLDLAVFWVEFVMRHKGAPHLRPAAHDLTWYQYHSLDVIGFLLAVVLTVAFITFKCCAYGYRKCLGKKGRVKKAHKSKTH
Assay: SAHA glucuronidation screen, UGT1A4-overexpressing cell homogenate
Format: in vitro ADME
Settings: human, UGT1A4-overexpressing cell homogenate, pH 7.5
result.type: Km at 1 h

Value of measured Km at 1 h for the entry O=C(CCCCCCC(=O)Nc1ccccc1)NO [SAHA, Suberoylanilide hydroxamic acid] : > 8 mM

---

Target: UGT1A7*2 [UGT1A7p.(Asn129Lys)+(Arg131Lys)] (Homo sapiens, UniProt Q9HAW7, N129K/R131K)
Sequence (Q9HAW7 26-530 N129K/R131K): as the sequence (Q9HAW7 26-530 W208R) above, with N104K, R106K, R183W counted along it
Assay: SAHA glucuronidation, UGT1A7*2 variant cell homogenate
Format: in vitro ADME
Settings: human, pH 7.5
result.type: Km at 1 h (µM)
# value in µM; strip the unit string

Value sought: Km at 1 h, system UGT1A7*2 [UGT1A7p.(Asn129Lys)+(Arg131Lys)] (Homo sapiens, UniProt Q9HAW7, N129K/R131K), item O=C(CCCCCCC(=O)Nc1ccccc1)NO [SAHA, Suberoylanilide hydroxamic acid] . Result: 2500

---

Target: UGT1A1 (Homo sapiens, UniProt P22309)
Sequence (P22309 26-533): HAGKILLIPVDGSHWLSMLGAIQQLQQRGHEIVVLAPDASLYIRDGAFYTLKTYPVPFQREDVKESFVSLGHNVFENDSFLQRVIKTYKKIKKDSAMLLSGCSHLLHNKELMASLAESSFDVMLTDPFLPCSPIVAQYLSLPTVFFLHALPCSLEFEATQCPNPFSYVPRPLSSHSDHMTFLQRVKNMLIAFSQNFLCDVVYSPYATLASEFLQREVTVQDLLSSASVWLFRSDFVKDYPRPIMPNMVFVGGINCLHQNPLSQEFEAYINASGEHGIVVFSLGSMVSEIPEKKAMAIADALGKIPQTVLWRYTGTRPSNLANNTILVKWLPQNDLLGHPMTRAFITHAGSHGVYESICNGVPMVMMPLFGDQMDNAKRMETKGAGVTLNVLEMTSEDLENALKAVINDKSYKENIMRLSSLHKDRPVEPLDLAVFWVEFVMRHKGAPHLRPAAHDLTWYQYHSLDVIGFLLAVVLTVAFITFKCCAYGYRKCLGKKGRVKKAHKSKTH
Assay: SAHA glucuronidation screen, UGT1A1-overexpressing cell homogenate
Assay type: in vitro ADME
Conditions: human, UGT1A1-overexpressing cell homogenate, pH 7.5
result.type: Km at 1 h

compound O=C(CCCCCCC(=O)Nc1ccccc1)NO [SAHA, Suberoylanilide hydroxamic acid] , Km at 1 h observed: > 8 mM

---

Biological target: UGT1A8*2 (UGT1A8p.Ala173Gly) (Homo sapiens, UniProt Q9HAW9, A173G)
Sequence (Q9HAW9 26-530 A173G): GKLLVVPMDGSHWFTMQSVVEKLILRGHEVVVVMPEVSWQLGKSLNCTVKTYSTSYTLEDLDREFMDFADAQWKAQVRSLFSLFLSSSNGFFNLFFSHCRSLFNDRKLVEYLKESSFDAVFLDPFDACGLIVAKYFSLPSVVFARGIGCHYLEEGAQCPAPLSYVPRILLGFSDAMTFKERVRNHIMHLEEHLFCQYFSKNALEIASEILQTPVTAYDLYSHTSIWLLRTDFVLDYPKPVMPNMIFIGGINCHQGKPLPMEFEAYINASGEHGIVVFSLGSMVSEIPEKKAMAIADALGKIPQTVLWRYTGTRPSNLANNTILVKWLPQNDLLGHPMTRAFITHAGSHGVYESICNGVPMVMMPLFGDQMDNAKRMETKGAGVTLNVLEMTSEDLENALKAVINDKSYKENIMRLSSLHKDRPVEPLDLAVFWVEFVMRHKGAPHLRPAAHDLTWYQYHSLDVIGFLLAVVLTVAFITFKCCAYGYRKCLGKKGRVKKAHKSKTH
Assay: SAHA glucuronidation, UGT1A8*2 variant cell homogenate
Type: in vitro ADME
Settings: human, UGT1A8*2 variant-overexpressing cell homogenate, pH 7.5
result.type: Km at 1 h
Answers without a unit are incomplete; give the number and then its unit.

compound O=C(CCCCCCC(=O)Nc1ccccc1)NO [SAHA, Suberoylanilide hydroxamic acid] , Km at 1 h observed: 3000 µM

Values were extracted from paper PMC2694132.
